target_entity: Pyruvate kinase PKM (Homo sapiens, UniProt P14618)
Sequence (P14618 2-531 limits assumed): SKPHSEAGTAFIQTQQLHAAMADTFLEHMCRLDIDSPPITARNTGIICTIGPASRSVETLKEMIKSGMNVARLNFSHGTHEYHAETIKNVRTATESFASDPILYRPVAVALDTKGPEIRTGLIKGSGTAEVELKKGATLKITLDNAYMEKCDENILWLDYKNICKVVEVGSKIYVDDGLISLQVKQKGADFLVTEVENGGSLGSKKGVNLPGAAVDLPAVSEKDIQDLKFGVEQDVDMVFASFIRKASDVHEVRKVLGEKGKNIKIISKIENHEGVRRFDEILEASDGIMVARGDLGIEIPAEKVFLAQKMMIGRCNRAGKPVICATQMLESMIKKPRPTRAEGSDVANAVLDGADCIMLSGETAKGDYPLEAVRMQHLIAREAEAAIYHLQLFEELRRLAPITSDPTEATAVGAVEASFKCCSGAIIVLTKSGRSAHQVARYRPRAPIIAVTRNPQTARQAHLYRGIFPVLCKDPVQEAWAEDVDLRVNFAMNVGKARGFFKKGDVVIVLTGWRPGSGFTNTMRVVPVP
experiment_summary: Activation of PKM2 in human A549 cells
Type: cell-based
Assign labels as follows, please: Criterion met for Activity below 2 µM; Criterion not met for Activity equal to or exceeding 2 µM.

[[record]]
smiles_notation = "O=C(c1cc(Cl)n[nH]1)N(Cc1cccc2[nH]ncc12)CC1CCC1"
target_entity = "Pyruvate kinase PKM (Homo sapiens, UniProt P14618)"
cat = "Criterion not met"

[[record]]
smiles_notation = "O=C(c1cc(C(F)(F)F)n[nH]1)N(Cc1ccc(O)cc1F)CC1CCC1"
target_entity = "Pyruvate kinase PKM (Homo sapiens, UniProt P14618)"
cat = "Criterion met"

[[record]]
smiles_notation = "O=C(c1cc(Br)n[nH]1)N(Cc1ccc(O)cc1F)CC1CCC1"
target_entity = "Pyruvate kinase PKM (Homo sapiens, UniProt P14618)"
cat = "Criterion met"

[[record]]
smiles_notation = "O=C(c1cc(Cl)n[nH]1)N(Cc1ccc(O)cc1F)CC1CCC1"
target_entity = "Pyruvate kinase PKM (Homo sapiens, UniProt P14618)"
cat = "Criterion met"

[[record]]
smiles_notation = "O=C(c1cc(C(F)(F)F)n[nH]1)N(Cc1cccc2[nH]ccc12)CC1CCC1"
target_entity = "Pyruvate kinase PKM (Homo sapiens, UniProt P14618)"
cat = "Criterion met"

[[record]]
smiles_notation = "O=C(c1cc(Br)n[nH]1)N(Cc1cccc2[nH]c(=O)sc12)CC1CCC1"
target_entity = "Pyruvate kinase PKM (Homo sapiens, UniProt P14618)"
cat = "Criterion not met"

[[record]]
smiles_notation = "O=C(c1cc(Cl)n[nH]1)N(Cc1cccc2[nH]ccc12)CC1CCC1"
target_entity = "Pyruvate kinase PKM (Homo sapiens, UniProt P14618)"
cat = "Criterion not met"

